# procedureDetails: Rodent pharmacokinetic study
# Assay type: in vivo, Male wistar rats
# testSettings: plasma; Wistar/Male rat, 3 mg/kg oral (gavage)
Given measured half-life, output Met if it is greater than or equal to 100 min and Not met if not.

Record CC(C)(O)CN1CCC(F)(CNC(=O)c2cc(Cl)c(N)c3cccnc23)CC1.O=C(O)C(O)C(O)C(=O)O [Example 37] ; criterion: half-life no lower than 100 min. Met?
Not met

Item CC(C)(O)CN1CCC(F)(CNC(=O)c2cc(F)c(N)c3cccnc23)CC1.O=C(O)C(O)C(O)C(=O)O [Example 43] with half-life of 100 min or above?
Met

Decide: is the reported value of half-life for Nc1c(Cl)cc(C(=O)NCC2C3CN(CC4CCOCC4)CC23)c2ncccc12.O=C(O)C(O)C(O)C(=O)O (centres unmarked) [Example 2] equal to or greater than 100 min?
Not met

We now examine a further molecule.
Please indicate if the recorded half-life for Nc1c(Cl)cc(C(=O)NCC2CCN(CC3CCOCC3)CC2)c2ncccc12.O=C(O)/C=C/C(=O)O [Example 1] meets or exceeds 100 min.
Met

====

# procedureDetails: Rodent pharmacokinetic study
# Type: in vivo, Male wistar rats
# testSettings: plasma; Wistar/Male rat, 3 mg/kg oral (gavage)
endpointLabel: AUC(0-t)

Would you please look over these solved cases?
Recorded AUC(0-t) for Nc1c(Cl)cc(C(=O)NCC2(F)CCN(CC3(O)CCOCC3)CC2)c2ncccc12.O=C(O)C(O)C(O)C(=O)O , please?
236 ng·h/mL

What AUC(0-t) value was documented for this molecule, Nc1c(Cl)cc(C(=O)NCC2C3CN(CC4CCOCC4)CC23)c2ncccc12.O=C(O)C(O)C(O)C(=O)O (stereo not drawn) ?
531 ng·h/mL

Entry Nc1c(Cl)cc(C(=O)NCC2CCN(CC3CCOCC3)CC2)c2ncccc12.O=C(O)C(O)C(O)C(=O)O has what AUC(0-t)?
235 ng·h/mL

For the molecule CC(C)(O)CN1CCC(F)(CNC(=O)c2cc(Cl)c(N)c3cccnc23)CC1.O=C(O)C(O)C(O)C(=O)O , what AUC(0-t) is on record?
200 ng·h/mL

Dear colleague, I am looking for the recorded AUC(0-t) of the following molecule: Nc1c(Cl)cc(C(=O)NCC2CCN(CC3CCOCC3)CC2)c2ncccc12.O=C(O)/C=C/C(=O)O
240 ng·h/mL

Next molecule, please.
I'd like to know its AUC(0-t). The molecule in question is CC(C)(O)CN1CCC(F)(CNC(=O)c2cc(F)c(N)c3cccnc23)CC1.O=C(O)C(O)C(O)C(=O)O
373 ng·h/mL

====

# subjectOfTest: recombinant human 5-HT4 receptor (Homo sapiens, UniProt Q13639)
# Construct: expressed in transfected cells
# Sequence (Q13639 whole entry): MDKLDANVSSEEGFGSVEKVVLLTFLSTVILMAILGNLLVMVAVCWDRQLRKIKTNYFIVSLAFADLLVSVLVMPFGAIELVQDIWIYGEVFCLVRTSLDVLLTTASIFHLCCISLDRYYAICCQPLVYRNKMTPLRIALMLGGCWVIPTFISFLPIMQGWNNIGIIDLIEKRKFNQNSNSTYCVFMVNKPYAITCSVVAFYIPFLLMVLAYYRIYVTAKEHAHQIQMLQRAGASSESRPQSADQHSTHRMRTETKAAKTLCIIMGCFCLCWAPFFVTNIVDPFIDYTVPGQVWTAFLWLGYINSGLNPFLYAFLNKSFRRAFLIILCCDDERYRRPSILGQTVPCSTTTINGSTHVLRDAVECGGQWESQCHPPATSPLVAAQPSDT
# procedureDetails: Determination of EC50 values for 5-HT4 receptor (CHO cells, pCRE-Luc reporter)
# Assay type: cell-based
# testSettings: CHO, CHO cells, human 5-HT4 receptor, luciferase reporter; read-out: Emax
Category scheme (Emax): LOW = under 70%, MID = from 70% up to 80%, HIGH = 80% and over

The entry to classify is CC(C)(O)CN1CCC(F)(CNC(=O)c2cc(F)c(N)c3cccnc23)CC1 [Example 42] ; which class holds it?
MID

Which category does the recorded Emax put Nc1c(Cl)cc(C(=O)NCC2CCN(CCF)CC2)c2ncccc12 [Example 52] in?
LOW

With those in mind, consider the next compound.
State the band of COC(=O)C(C)(C)CN1CCC(CNC(=O)c2cc(Cl)c(N)c3cccnc23)CC1 [Example 31]
LOW

====

# procedureDetails: Rodent brain penetration study
# Format: in vivo, Male Wistar rats
# testSettings: male, Wistar, rat, brain, po, 3 mg/kg, 3 mg/kg oral (gavage), read-out: Single dose Brain Penetration (Cb/Cp)
Please respond with T when measured Kp is strictly beneath 0.6, and with F in all other cases.

The following compounds have reported results that may help.
# strict comparison: is reported Kp < 0.6? input = CC(C)(O)CN1CCC(F)(CNC(=O)c2cc(F)c(N)c3cccnc23)CC1.O=C(O)C(O)C(O)C(=O)O
F

Take the compound Nc1c(Cl)cc(C(=O)NCC2C3CN(CC4CCOCC4)CC23)c2ncccc12.O=C(O)C(O)C(O)C(=O)O (centres unmarked) and say whether its Kp is less than 0.6.
F

In plain terms, does Nc1c(Cl)cc(C(=O)NCC2CCN(CC3CCOCC3)CC2)c2ncccc12.O=C(O)C(O)C(O)C(=O)O come in under 0.6 for Kp?
T

Would you kindly look at the next entry?
# check: Kp < 0.6 for Nc1c(Cl)cc(C(=O)NCC2(F)CCN(CC3(O)CCOCC3)CC2)c2ncccc12.O=C(O)C(O)C(O)C(=O)O
T

====

# procedureDetails: Rodent pharmacokinetic study
# Assay type: in vivo, Male wistar rats
# testSettings: plasma; Wistar/Male rat, 3 mg/kg oral (gavage)
Examples of compounds with documented Cmax follow.
State the answer as a number, implicitly in ng/mL.

What value of Cmax has been reported for the following compound? Nc1c(Cl)cc(C(=O)NCC2(F)CCN(CC3(O)CCOCC3)CC2)c2ncccc12.O=C(O)C(O)C(O)C(=O)O
173

// Cmax lookup, key: CC(C)(O)CN1CCC(F)(CNC(=O)c2cc(Cl)c(N)c3cccnc23)CC1.O=C(O)C(O)C(O)C(=O)O
137

What Cmax value was documented for this compound, Nc1c(Cl)cc(C(=O)NCC2CCN(CC3CCOCC3)CC2)c2ncccc12.O=C(O)/C=C/C(=O)O ?
121

Name the reported Cmax value associated with the compound Nc1c(Cl)cc(C(=O)NCC2C3CN(CC4CCOCC4)CC23)c2ncccc12.O=C(O)C(O)C(O)C(=O)O (stereo not drawn)
140

Value lookup for Cmax; key = Nc1c(Cl)cc(C(=O)NCC2CCN(CC3CCOCC3)CC2)c2ncccc12.O=C(O)C(O)C(O)C(=O)O
76

---
Param item = CC(C)(O)CN1CCC(F)(CNC(=O)c2cc(F)c(N)c3cccnc23)CC1.O=C(O)C(O)C(O)C(=O)O ; retrieve measured Cmax.
231

====

# subjectOfTest: recombinant human 5-HT4 receptor (Homo sapiens, UniProt Q13639)
# procedureDetails: Determination of EC50 values for 5-HT4 receptor (CHO cells, pCRE-Luc reporter)
# testSettings: CHO cells, human 5-HT4 receptor, luciferase reporter, 4 hours incubation
# Description: Determination of EC50 Values for 5-HT4 Receptor A stable CHO cell line expressing recombinant human 5-HT4 receptor and pCRE-Luc reporter system was used for cell-based assay. The assay offers a non-radioactive based approach to determine binding of a compound to GPCRs. In this specific assay, the level of intracellular cyclic AMP, which is modulated by activation, or inhibition of the receptor is measured. […]
Known EC50 of a selection of compounds

Some compounds with known EC50 results, for comparison:
What does the record list as EC50 for Nc1c(Cl)cc(C(=O)NCC2CCN(CC3CCOCC3)C2)c2ncccc12 (stereo not shown) ?
0.2 nM

Given the compound CC(C)(O)CN1CCC(CNC(=O)c2cc(Br)c(N)c3cccnc23)CC1 , what is its reported EC50?
0.3 nM

Please report the recorded EC50 for Nc1c(Cl)cc(C(=O)NCC2CCN(CC3CCOC3)CC2)c2ncccc12.O=C(O)C(O)C(O)C(=O)O (racemic) .
0.05 nM

Turning now to a further compound:
Item under review: Nc1c(Cl)cc(C(=O)NC2CCN(CC3(O)CCOCC3)CC2)c2ncccc12 . Reported EC50?
4.1 nM

====

# procedureDetails: Rodent pharmacokinetic study
# Type: in vivo, Male wistar rats
# testSettings: plasma; Wistar/Male rat, 1 mg/kg intravenous (bolus)
endpointLabel: AUC(0-t) (ng·h/mL)
Express your answer in ng·h/mL, writing the number without its unit.

Could you share which AUC(0-t) value was measured for Nc1c(Cl)cc(C(=O)NCC2C3CN(CC4CCOCC4)CC23)c2ncccc12.O=C(O)C(O)C(O)C(=O)O (centres unmarked) ?
284

Form field: reported AUC(0-t) of CC(C)(O)CN1CCC(F)(CNC(=O)c2cc(F)c(N)c3cccnc23)CC1.O=C(O)C(O)C(O)C(=O)O
362

Which AUC(0-t) is listed for CC(C)(O)CN1CCC(F)(CNC(=O)c2cc(Cl)c(N)c3cccnc23)CC1.O=C(O)C(O)C(O)C(=O)O ?
274

Others:
Please report the recorded AUC(0-t) for Nc1c(Cl)cc(C(=O)NCC2CCN(CC3CCOCC3)CC2)c2ncccc12.O=C(O)C(O)C(O)C(=O)O .
211

Tell me the measured AUC(0-t) of Nc1c(Cl)cc(C(=O)NCC2(F)CCN(CC3(O)CCOCC3)CC2)c2ncccc12.O=C(O)C(O)C(O)C(=O)O , please.
401

====

# subjectOfTest: recombinant human 5-HT4 receptor (Homo sapiens)
# procedureDetails: Determination of EC50 values for 5-HT4 receptor (CHO cells, pCRE-Luc reporter)
# testSettings: CHO cells, human 5-HT4 receptor, luciferase reporter, 4 hours incubation
Parameter: pEC50. Scope: all listed entries.
Here pEC50 is given on a logarithmic scale as minus log10 of the concentration in mol/L.

Field: example entries. Status: answers known.
Fill in the blank: the reported pEC50 of CC(C)(O)CN1CCC(F)(CNC(=O)c2cc(Cl)c(N)c3cccnc23)CC1.O=C(O)C(O)C(O)C(=O)O is ____.
8.66

Quick check: pEC50 of Nc1c(Cl)cc(C(=O)NCC2C3CN(CC4CCOC4)CC23)c2ncccc12 (stereo not shown) ?
9.24

Field request: pEC50 | item: CC(C)(O)CN1CCC(F)(CNC(=O)c2cc(F)c(N)c3cccnc23)CC1
8.40

So what's the measured pEC50 for this one? CC(C)(O)CN1CC2C(CNC(=O)c3cc(Cl)c(N)c4cccnc34)C2C1 (stereo not shown)
8.41

Please give the measured pEC50 for this molecule: Nc1c(Br)cc(C(=O)NCC2CCN(CC3CCOCC3)CC2)c2ncccc12
10.10

Further cases:
Data request, read-out pEC50, for Nc1c(Cl)cc(C(=O)NCC2[C@H]3CN(CC4CCOCC4)C[C@@H]23)c2ncccc12 (mixture of isomers)
9.30

Fill in: pEC50 of CC(C)(F)CN1CCC(CNC(=O)c2cc(Cl)c(N)c3cccnc23)CC1 is ___
10.00

Return reported pEC50; argument: Nc1c(Cl)cc(C(=O)NCC2C3CN(CC4(O)CCOCC4)CC23)c2ncccc12 (stereo not shown)
9.22

I would be grateful if you could share the reported pEC50 for Nc1c(F)cc(C(=O)NCC2CCN(CC3CCOCC3)CC2)c2ncccc12 .
9.52

Given the molecule Nc1c(Cl)cc(C(=O)NCC2C3CN(CC4CCOCC4)CC23)c2ncccc12.O=C(O)C(O)C(O)C(=O)O (stereo not shown) , what is its reported pEC50?
9.30

Which pEC50 value is on record for CC(C)(O)CN1CCC(F)(CNC(=O)c2cc(Br)c(N)c3cccnc23)CC1 ?
7.93

Could you tell me which pEC50 is on file for Nc1c(Cl)cc(C(=O)NCC2C3CN(CCF)CC23)c2ncccc12 (stereo not shown) ?
8.35
